assay: Inhibition of reverse transcriptase E138K mutant in HIV1 infected in human MT4 cells assessed as protection against virus induced cytotoxicity after 5 days by MTT assay
# pEC50 listing for each entry below
# log scale: pEC50 equals minus log10 of the concentration in mol/L

>>> df
                         chemical_structure  reported_measurement
0  Cc1cc(C)cc(S(=O)(=O)n2c(SCC(=O)Nc3ccc(C(=O)O)cc3)nc3ccccc32)c1                  5.87
1  Cc1ccc(NC(=O)CSc2nc3ccccc3n2S(=O)(=O)c2cc(C)cc(C)c2)cc1                  6.80
2  Cc1cc(C)cc(S(=O)(=O)n2c(SCC(=O)Nc3ccc(S(C)(=O)=O)cc3)nc3ccccc32)c1                  6.82
3  Cc1cc(C)cc(S(=O)(=O)n2c(SCC(=O)Nc3ccc(S(N)(=O)=O)cc3)nc3ccccc32)c1                  7.22
4  Cc1cc(C)cc(S(=O)(=O)n2c(OCC(=O)Nc3ccc(S(C)(=O)=O)cc3Cl)nc3ccccc32)c1                  6.17

*Q* Kindly indicate its recorded pEC50. Item: `COC(=O)c1ccc(NC(=O)CSc2nc3ccccc3n2S(=O)(=O)c2cc(C)cc(C)c2)cc1`
*A* 6.80

###

Recorded EC50, one value per entry.
assay: Inhibition of reverse transcriptase K103N/Y181C double mutant in HIV1 infected in human MT4 cells assessed as protection against virus induced cytotoxicity after 5 days by MTT assay

>>> print(df.to_string())
                         chemical_structure  experimental_endpoint  reported_measurement
0  COC(=O)c1ccc(NC(=O)CSc2nc3ccccc3n2S(=O)(=O)c2cc(C)cc(C)c2)cc1                   EC50             > 8.36 µM
1  Cc1cc(C)cc(S(=O)(=O)n2c(SCC(=O)Nc3ccc(S(C)(=O)=O)cc3)nc3ccccc32)c1                   EC50             > 10.6 µM
2  Cc1ccc(NC(=O)CSc2nc3ccccc3n2S(=O)(=O)c2cc(C)cc(C)c2)cc1                   EC50             > 3.13 µM
3  Cc1cc(C)cc(S(=O)(=O)n2c(SCC(=O)Nc3ccc(C(=O)O)cc3)nc3ccccc32)c1                   EC50              > 124 µM

Turning to the following compound.
*Q* Provide measured EC50 value, entry: `Cc1cc(C)cc(S(=O)(=O)n2c(SCC(=O)Nc3ccc(S(N)(=O)=O)cc3)nc3ccccc32)c1`
*A* > 27.2 µM

###

assay: Inhibition of reverse transcriptase F227L/V106A double mutant in HIV1 infected in human MT4 cells assessed as protection against virus induced cytotoxicity after 5 days by MTT assay
pEC50: −log10 of the molar value.
experimental endpoint: pEC50

Record excerpt, results attached:
>>> df
                         chemical_structure  reported_measurement
0  COC(=O)c1ccc(NC(=O)CSc2nc3ccccc3n2S(=O)(=O)c2cc(C)cc(C)c2)cc1                < 5.08
1  Cc1cc(C)cc(S(=O)(=O)n2c(SCC(=O)Nc3ccc(S(N)(=O)=O)cc3)nc3ccccc32)c1                  5.80
2  Cc1cc(C)cc(S(=O)(=O)n2c(OCC(=O)Nc3ccc(S(C)(=O)=O)cc3Cl)nc3ccccc32)c1                  5.74
3  Cc1ccc(NC(=O)CSc2nc3ccccc3n2S(=O)(=O)c2cc(C)cc(C)c2)cc1                < 5.50
4  Cc1cc(C)cc(S(=O)(=O)n2c(SCC(=O)Nc3ccc(C(=O)O)cc3)nc3ccccc32)c1                < 3.91

Attention now shifts to the item below.
*Q* Please report the measured pEC50 for `Cc1cc(C)cc(S(=O)(=O)n2c(SCC(=O)Nc3ccc(S(C)(=O)=O)cc3)nc3ccccc32)c1`
*A* < 6.11
